- Test system: LG0567-F671-PDC KRAS tumor spheroid viability;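 also: drug exposure lasted seven days after spheroids formed for three days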
- method description: Anticancer human tumor LG0567-F671-PDC patient-derived lung adenocarcinoma cell line growth inhibition [KRAS2]
- experimental parameters: second compound 1 µM; first compound 0.1 µM; hits give low values; spheroids with HUVEC and MSC
Labelling field: enter Fulfilled if recorded viability, T/C is less than 20%. Enter Not fulfilled if it equals or exceeds that cut-off.

Field: below-cutoff. Rule: recorded viability, T/C strictly less than 20%. Subject: CC1OCC2(CCN(c3cnc(Sc4ccnc(N)c4Cl)c(N)n3)CC2)C1N (stereo not given) + COc1cc2nc(C)nc(NC(C)c3cc(N)cc(C(F)(F)F)c3)c2cc1OC1CCOC1
Not fulfilled

Field: below-cutoff. Rule: recorded viability, T/C strictly less than 20%. Subject: CC(C)NCC(C(=O)N1CCN(c2ncnc3c2C(C)CC3O)CC1)c1ccc(Cl)cc1 (stereo not given) + CC1OCC2(CCN(c3cnc(Sc4ccnc(N)c4Cl)c(N)n3)CC2)C1N
Not fulfilled

Field: below-cutoff. Rule: recorded viability, T/C strictly less than 20%. Subject: CN(C)C/C=C/C(=O)Nc1cc2c(Nc3ccc(F)c(Cl)c3)ncnc2cc1O[C@H]1CCOC1 + C=CC(=O)N1CCN(c2nc(OCC3CCCN3C)nc3c2CCN(c2cccc4cccc(C)c24)C3)CC1CC#N
Fulfilled

Field: below-cutoff. Rule: recorded viability, T/C strictly less than 20%. Subject: Cn1nccc1Nc1nccc(-c2cc3c(s2)C(C)(C)N(CCN2CCOCC2)C3=O)n1 + C=CC(=O)N1CCN(c2nc(=O)n(-c3c(C)ccnc3C(C)C)c3nc(-c4c(O)cccc4F)c(F)cc23)C(C)C1
Not fulfilled

Field: below-cutoff. Rule: recorded viability, T/C strictly less than 20%. Subject: CCN1CCN(Cc2ccc(Nc3ncc(F)c(-c4cc(F)c5nc(C)n(C(C)C)c5c4)n3)nc2)CC1 + CNCc1ccccc1-c1csc(C(C)Nc2nc(C)nc3cc(OC)c(OC)cc23)c1
Not fulfilled
